# Test system: R28
# METHOD SUMMARY: Cytoprotective activity against glutamate-induced cytotoxicity in rat R28 cells assessed as increase in cell viability at 10 uM incubated for 24 hrs in presence of glutamate by MTT assay
# Type: functional, cell-based
The source made the active and inactive calls. The calls are words filed in the database; no cut-off is given here.
Result category, one only: active, inactive

CN1C[C@H](c2ccc(O)c(O)c2)[C@@H](C(=O)c2ccc(Br)cc2)[C@]12C(=O)Nc1ccccc12 | active

// return assay outcome for `CN1C[C@H](c2ccc(O)c(O)c2)[C@@H](C(=O)c2cccc(Br)c2)[C@]12C(=O)Nc1ccccc12`
active

// return assay outcome for `CN1C[C@H](c2ccc(O)c(O)c2)[C@@H](C(=O)c2ccc(S(C)(=O)=O)cc2)[C@]12C(=O)Nc1ccccc12`
inactive

// return assay outcome for `CN1C[C@H](c2ccc(O)c(O)c2)[C@@H](C(=O)c2ccc(Cl)cc2)[C@]12C(=O)Nc1ccccc12`
active

Values from ChEMBL document CHEMBL6092158
